Values from patent US20230322924A1

# system-under-test: T1, Cyno CD33 full length (cynomolgus monkey)
# T1 construct: also called cyCD33
# test-details: flow cytometry on HEK293F cells expressing cyno CD33
readout-label: MFI at 0 nM (background) (MFI)
One number for each entry, in MFI.

binder	MFI at 0 nM (background), MFI
C33B914 (antibody, V domains shown, OMNIMouse-derived anti-CD33 mAb; same V regions as C33B906; also called C33H254/C33L120; C33F552) VH: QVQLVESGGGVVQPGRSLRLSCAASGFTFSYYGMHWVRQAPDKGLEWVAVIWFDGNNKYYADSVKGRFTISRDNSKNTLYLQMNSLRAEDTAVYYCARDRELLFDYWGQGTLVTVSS VL: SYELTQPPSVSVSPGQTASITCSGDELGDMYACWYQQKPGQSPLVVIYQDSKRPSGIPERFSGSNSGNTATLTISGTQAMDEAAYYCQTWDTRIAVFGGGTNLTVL	86.8
C33B912 (antibody, V domains shown, OMNIMouse-derived anti-CD33 mAb; also called C33H252/C33L118; C33F550) VH: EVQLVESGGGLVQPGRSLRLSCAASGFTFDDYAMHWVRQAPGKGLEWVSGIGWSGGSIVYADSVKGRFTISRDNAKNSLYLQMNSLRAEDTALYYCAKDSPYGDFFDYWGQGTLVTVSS VL: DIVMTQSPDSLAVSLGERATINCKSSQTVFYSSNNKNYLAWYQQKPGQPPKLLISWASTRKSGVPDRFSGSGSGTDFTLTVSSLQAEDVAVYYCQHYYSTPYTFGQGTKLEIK	125

Okay, next one:
Item under review: C33B916 (antibody, V domains shown, OMNIMouse-derived anti-CD33 mAb; same V regions as C33B908; also called C33H256/C33L122; C33F554) VH: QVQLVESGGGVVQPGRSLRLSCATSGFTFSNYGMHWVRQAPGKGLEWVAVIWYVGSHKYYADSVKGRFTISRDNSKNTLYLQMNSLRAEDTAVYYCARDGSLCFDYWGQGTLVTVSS VL: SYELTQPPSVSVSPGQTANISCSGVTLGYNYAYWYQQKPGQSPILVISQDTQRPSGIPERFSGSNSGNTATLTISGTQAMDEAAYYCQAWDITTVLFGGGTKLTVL . Reported MFI at 0 nM (background)?
104
